- Target or system: Alpha-2C adrenergic receptor (Homo sapiens, UniProt P18825)
- Sequence (P18825 whole entry): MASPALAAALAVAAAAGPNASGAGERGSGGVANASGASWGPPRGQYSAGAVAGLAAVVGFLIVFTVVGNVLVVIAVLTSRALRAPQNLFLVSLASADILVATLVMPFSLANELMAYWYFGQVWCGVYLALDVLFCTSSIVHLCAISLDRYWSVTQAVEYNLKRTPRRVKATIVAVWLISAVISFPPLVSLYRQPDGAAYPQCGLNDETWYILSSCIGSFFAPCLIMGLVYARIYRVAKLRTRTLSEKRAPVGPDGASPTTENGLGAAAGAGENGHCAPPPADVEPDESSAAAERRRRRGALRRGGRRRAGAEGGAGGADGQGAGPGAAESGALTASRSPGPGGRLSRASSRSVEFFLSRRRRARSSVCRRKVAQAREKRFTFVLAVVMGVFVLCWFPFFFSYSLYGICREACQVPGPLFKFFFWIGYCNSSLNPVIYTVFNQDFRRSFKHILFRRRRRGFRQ
- Measurement notes: GPCRScan assay: inhibition of Alpha2C
- Design: radioligand conc. used [nm] 0.5 – 1.0, parental cells stable MDCK
- Condition context: read-out: Ki
Metric name: Ki (µM)
Answers are plain numbers, in µM.

// returns Ki for COc1ccc2c(O[C@@H]3C[C@H]4C(=O)N[C@]5(C(=O)O)CC5/C=C\CCCCC[C@H](NC(=O)OC5CCCC5)C(=O)N4C3)cc(-c3csc(NC(=O)C(C)C)n3)nc2c1C (stereo partly specified) [BI 1230] with Alpha-2C adrenergic receptor (Homo sapiens, UniProt P18825); value = 3.29

###

- Target or system: UniProt:P13945
- Sequence (P13945 whole entry): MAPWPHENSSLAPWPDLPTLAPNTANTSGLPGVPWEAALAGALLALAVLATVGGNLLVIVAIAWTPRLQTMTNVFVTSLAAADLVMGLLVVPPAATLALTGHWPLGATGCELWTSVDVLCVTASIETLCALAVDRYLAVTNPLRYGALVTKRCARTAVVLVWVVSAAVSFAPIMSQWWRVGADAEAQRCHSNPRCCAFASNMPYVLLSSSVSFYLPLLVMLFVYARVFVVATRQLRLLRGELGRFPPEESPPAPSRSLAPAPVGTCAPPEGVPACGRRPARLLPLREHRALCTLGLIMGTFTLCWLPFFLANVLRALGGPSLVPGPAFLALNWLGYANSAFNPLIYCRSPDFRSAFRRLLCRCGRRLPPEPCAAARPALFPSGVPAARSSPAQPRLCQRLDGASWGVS
Metric name: pKi
Numbers only, as −log10 of the molar value.

Documented pKi of COc1ccc2c(O[C@@H]3C[C@H]4C(=O)N[C@]5(C(=O)O)CC5/C=C\CCCCC[C@H](NC(=O)OC5CCCC5)C(=O)N4C3)cc(-c3csc(NC(=O)C(C)C)n3)nc2c1C (stereo partly specified) [BI 1230] : 5.44
